# Procedure text: qHTS for inhibitors of Vif-A3G interactions: Cherry picks; note: nearly all actives have a fitted effect of over 80% in size
# Cond: HeLa A3G-eYFP + Vif (tagged APOBEC3G with the HIV-1 protein that degrades it), 24 h; eYFP fluorescence increase; series mostly up to 36.9 µM
Hit rate of the full screen: of about 2,100 compounds, about 650 (31%) were called active. Roughly 16% stayed inconclusive and do not appear here. Calls come from the whole dose curve; as a rule, active = well fitted inhibition curve with a large enough effect; inconclusive = small, poorly fitted or top-dose-only effect; inactive = flat fitted curve, though single readings scatter. Some of the results follow.
Answer with one of the outcomes active, inactive

1) Cc1c(Cl)cccc1-c1ccc(/C=C(\C#N)c2nc3ccccc3[nH]2)o1 : active

// param item: "COc1ccc2nc3sc(C(=O)Nc4cc(Cl)c(OC)cc4OC)cc3cc2c1" ; yields the recorded call
inactive

// param item: "COc1cccc(OCc2nc3ncc(Br)cc3[nH]2)c1" ; yields the recorded call
inactive

// param item: "COC(=O)c1sc(-c2cccs2)cc1NC(=O)/C=C/C(=O)O" ; yields the recorded call
inactive

// param item: "Cc1cc(C(F)(F)F)c2c(N)c(C(=O)Nc3cc(C)on3)sc2n1" ; yields the recorded call
active

// param item: "O=C(Cc1cc2ccccc2o1)NCc1ccc(F)cc1" ; yields the recorded call
inactive

Entry source: PubChem BioAssay AID651812
